target: human CYP2C9 (Homo sapiens, UniProt P11712); test: biochemical
Sequence (P11712 whole entry): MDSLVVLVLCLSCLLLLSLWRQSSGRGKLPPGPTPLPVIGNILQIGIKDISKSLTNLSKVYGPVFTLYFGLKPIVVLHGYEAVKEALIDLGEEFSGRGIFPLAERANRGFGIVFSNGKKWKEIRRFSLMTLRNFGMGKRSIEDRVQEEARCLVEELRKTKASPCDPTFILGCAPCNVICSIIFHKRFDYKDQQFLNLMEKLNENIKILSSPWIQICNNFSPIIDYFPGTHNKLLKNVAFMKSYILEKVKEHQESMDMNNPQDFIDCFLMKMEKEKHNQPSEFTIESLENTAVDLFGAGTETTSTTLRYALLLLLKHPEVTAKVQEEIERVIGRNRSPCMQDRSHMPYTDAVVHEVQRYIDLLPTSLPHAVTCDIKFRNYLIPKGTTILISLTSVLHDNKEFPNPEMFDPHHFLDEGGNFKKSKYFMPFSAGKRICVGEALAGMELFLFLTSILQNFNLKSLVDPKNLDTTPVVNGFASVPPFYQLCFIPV
Where a name gives a salt, the structure may show the parent alone.
observationType: pIC50
Keep in mind that pIC50 stands for -log10 of concentration in molar terms.

Solved cases below.
compound	pIC50
CN(C)[C@@H](CCOc1cccc2ccccc12)c1ccccc1	4.77
Cc1cc2c(OCC(CNC(C)(C)C)OC(=O)c3ccccc3)cccc2[nH]1 (centres unmarked)	5.16
Cc1cc(-c2ccc(N)c(C)c2)ccc1N	4.63
O=c1c2ccccc2oc2ccccc12	4.45
COC(=O)N[C@H](C(=O)N[C@@H](Cc1ccccc1)[C@@H](O)CN(Cc1ccc(-c2ccccn2)cc1)NC(=O)[C@@H](NC(=O)OC)C(C)(C)C)C(C)(C)C	4.81
Clc1cccc(C(c2ccc3[nH]cnc3c2)n2ccnc2)c1 (centres unmarked)	4.95
CSC(=O)c1cccc2nnsc12	5.06
COC(=O)C1=C(C)NC(C)=C(C(=O)OC(C)(C)CN(C)CCC(c2ccccc2)c2ccccc2)C1c1cccc([N+](=O)[O-])c1 (centres unmarked) [Lercanidipine hydrochloride]	5.54
CCN(CC)CCOC(=O)C(C)(c1ccccc1)c1ccccc1	4.89
C[C@@H](NCCCc1cccc(C(F)(F)F)c1)c1cccc2ccccc12 [Cinacalcet hydrochloride]	4.41

Query: Report pIC50 for COc1cc(C(C)=O)ccc1OCCCN1CCC(c2noc3cc(F)ccc23)CC1 tested on human CYP2C9 (Homo sapiens, UniProt P11712).
Reply: 4.64

----------
molecular target: human CYP2C19 (Homo sapiens, UniProt P33261); test: biochemical; details: CYP2C19 AC50 (half-maximal activity concentration)
Sequence (P33261 whole entry): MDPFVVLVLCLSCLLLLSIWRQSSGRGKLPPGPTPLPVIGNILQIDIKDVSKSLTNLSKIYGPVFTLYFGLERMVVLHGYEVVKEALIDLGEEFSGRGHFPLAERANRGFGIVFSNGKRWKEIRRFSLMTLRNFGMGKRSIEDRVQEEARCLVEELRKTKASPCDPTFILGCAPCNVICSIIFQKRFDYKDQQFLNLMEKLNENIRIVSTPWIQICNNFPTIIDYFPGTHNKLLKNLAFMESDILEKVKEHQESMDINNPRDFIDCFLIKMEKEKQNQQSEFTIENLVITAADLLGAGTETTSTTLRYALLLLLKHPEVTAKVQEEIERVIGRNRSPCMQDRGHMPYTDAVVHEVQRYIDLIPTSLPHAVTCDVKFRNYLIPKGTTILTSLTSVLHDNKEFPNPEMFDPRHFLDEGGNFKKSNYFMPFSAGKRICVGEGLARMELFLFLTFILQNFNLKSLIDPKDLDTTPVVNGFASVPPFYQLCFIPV
Measured AC50 values are reported for all entries that follow.
Reply with just the number (in µM).

// solved cases for AC50 follow
molecule	AC50 / µM
CC(=O)OCC(=O)[C@H]1CC[C@H]2[C@@H]3CCC4=CC(=O)CC[C@]4(C)[C@H]3CC[C@]12C [Deoxycorticosterone acetate]	8.43
CC1(C)C(C=C(Cl)Cl)C1C(=O)OC(C#N)c1cccc(Oc2ccccc2)c1 (stereo not drawn) [Cypermethrin]	24.6
CCOC(=O)NC(C)(C)Cc1ccc(Cl)cc1 [Cloforex]	5.34

Query: Which AC50 reading was recorded for the molecule Sc1ncnc2nc[nH]c12 [6-Mercaptopurine] ?
Reply: 34.7

Query: Field request: AC50 | item: Cc1nc2ccccc2c(=O)n1-c1ccccc1Cl [Mecloqualone]
Reply: 2.88

Query: What measured AC50 goes with Cc1ccccc1OP(=O)(Oc1ccccc1C)Oc1ccccc1C [Tri-o-cresyl phosphate] ?
Reply: 1.3

Query: Given the entry Oc1cc(Cl)c(Cl)c(Cl)c1 [3,4,5-Trichlorophenol] , report its measured AC50.
Reply: 19.5

Query: Sample CCC(C)c1cc([N+](=O)[O-])cc([N+](=O)[O-])c1O (stereo not drawn) [Dinoseb] — what was its AC50?
Reply: 76.8

Query: Query (molecule): Oc1c(I)cc(I)cc1I [2,4,6-Triiodophenol] ; field requested: AC50
Reply: 61.9

----------
Here we list molecules with their recorded AC50 when tested on CYP3A4 (Homo sapiens, UniProt P08684).
Sequence (P08684 whole entry): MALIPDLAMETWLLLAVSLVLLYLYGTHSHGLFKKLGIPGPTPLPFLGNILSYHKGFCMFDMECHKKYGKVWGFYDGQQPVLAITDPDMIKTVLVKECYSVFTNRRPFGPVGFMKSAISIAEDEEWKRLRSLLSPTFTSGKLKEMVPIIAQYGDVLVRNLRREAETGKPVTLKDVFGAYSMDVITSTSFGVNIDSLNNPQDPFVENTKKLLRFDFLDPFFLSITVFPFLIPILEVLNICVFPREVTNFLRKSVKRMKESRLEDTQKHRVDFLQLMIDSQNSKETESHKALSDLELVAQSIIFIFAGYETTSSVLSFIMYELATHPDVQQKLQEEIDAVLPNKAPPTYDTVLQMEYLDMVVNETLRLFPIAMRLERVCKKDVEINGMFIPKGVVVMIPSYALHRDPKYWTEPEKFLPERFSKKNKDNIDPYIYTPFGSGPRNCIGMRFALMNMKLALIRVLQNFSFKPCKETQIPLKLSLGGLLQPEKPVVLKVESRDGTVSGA
Report the figure in µM without appending any unit label.

molecule	AC50, µM
Cc1cccc2c1cc1ccc3cccc4ccc2c1c34	73

Query: Lab note: need AC50 with CYP3A4 (Homo sapiens, UniProt P08684) for entry O=C(c1ccc(O)c(O)c1)c1ccc(O)cc1O [2,3',4,4'-Tetrahydroxybenzophenone] , please look it up.
Reply: 18.4

Query: Hi! What's the reported AC50 for CCC(=O)OCCOc1ccccc1 [Phenoxyethyl propionate] on CYP3A4 (Homo sapiens, UniProt P08684)?
Reply: 47.1

Query: Give the reported AC50 for CCOC(CN1CCN(CC(C)C(=O)c2ccccc2)CC1)c1ccccc1.Cl.Cl (stereo not shown) [Eprazinone dihydrochloride] (system: CYP3A4 (Homo sapiens, UniProt P08684)).
Reply: 15.2
